- SUBJECT OF TEST: VLA-4 (Homo sapiens, UniProt P05556+P13612)
- Sequence (P13612 34-1032): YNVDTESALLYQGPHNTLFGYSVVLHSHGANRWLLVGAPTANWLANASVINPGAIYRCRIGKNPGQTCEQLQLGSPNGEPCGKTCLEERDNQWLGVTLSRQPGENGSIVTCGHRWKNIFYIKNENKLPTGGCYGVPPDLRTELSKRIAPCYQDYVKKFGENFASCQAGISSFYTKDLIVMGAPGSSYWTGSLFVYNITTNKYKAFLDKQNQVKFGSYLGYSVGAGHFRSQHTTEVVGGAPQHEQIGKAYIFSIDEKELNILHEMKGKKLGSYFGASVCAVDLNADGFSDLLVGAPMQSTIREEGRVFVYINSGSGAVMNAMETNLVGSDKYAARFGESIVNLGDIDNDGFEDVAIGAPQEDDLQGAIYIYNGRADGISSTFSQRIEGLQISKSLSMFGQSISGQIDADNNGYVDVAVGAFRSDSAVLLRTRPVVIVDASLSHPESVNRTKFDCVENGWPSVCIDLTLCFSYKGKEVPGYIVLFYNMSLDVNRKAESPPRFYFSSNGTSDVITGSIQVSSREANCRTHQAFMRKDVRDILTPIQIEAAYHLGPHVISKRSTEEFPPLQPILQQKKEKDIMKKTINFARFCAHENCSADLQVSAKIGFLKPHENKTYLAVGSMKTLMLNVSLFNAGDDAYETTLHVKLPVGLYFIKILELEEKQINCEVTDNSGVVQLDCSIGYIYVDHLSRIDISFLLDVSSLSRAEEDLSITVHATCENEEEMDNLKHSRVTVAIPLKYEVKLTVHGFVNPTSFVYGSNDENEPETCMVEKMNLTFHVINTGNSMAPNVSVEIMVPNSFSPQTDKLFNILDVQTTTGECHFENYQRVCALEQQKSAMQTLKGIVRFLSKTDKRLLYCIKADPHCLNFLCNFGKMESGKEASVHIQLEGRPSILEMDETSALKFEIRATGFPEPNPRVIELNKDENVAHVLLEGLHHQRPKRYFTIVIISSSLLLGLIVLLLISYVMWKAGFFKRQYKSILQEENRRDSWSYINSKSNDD
- Sequence (P05556 21-798): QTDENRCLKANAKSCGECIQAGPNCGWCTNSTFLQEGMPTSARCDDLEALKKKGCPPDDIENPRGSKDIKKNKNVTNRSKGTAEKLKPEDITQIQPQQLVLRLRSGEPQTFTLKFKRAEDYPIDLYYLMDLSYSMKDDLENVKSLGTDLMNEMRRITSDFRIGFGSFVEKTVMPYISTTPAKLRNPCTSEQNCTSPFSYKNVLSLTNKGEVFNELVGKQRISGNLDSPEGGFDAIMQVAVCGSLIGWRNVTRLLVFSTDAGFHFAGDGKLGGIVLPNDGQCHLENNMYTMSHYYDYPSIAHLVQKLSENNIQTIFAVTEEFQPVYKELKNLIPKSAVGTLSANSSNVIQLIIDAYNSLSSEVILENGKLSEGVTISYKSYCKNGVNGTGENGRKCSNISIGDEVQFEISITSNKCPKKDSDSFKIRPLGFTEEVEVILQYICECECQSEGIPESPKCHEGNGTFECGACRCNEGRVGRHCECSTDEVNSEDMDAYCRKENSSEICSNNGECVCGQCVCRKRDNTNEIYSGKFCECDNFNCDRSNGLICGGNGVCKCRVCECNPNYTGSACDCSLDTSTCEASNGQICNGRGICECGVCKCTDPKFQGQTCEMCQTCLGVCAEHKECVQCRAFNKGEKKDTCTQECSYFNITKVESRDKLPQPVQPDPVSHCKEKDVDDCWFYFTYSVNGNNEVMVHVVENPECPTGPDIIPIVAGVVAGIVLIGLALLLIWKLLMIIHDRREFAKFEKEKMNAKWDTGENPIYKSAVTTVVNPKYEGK
- TEST METHOD NOTES: In vitro binding inhibition of 51Cr-labeled Jurkat cells to solid phase-bound CS-1 compound (SEQ ID NO:1)
- Type: cell-based
- Set-up: inflammatory cells that contain the VLA-4 receptor [Jurkat cells; host or cells: Jurkat (human T lymphoblastic line)
Square brackets hold non-standard residues; d marks the D form. Peptide text beside a SMILES is read from it. Cha = N[C@@H](CC1CCCCC1)C(=O)O; NMeV = CN[C@H](C(=O)O)C(C)C
REPORTED METRIC: Relative Potency

# COMPOUND, SUBJECT OF TEST, REPORTED RESULT
data = [
    ("CC(C)C[C@H](NC(=O)CC1CCCCC1)C(=O)N[C@@H](CC(=O)O)C(=O)N[C@H](C(=O)N1CCC[C@@H]1C(N)=O)C(C)C", "VLA-4 (Homo sapiens, UniProt P05556+P13612)", 3.76),
    ("CC[C@H](C)[C@H](N)C(=O)N[C@@H](CC(C)C)C(=O)N[C@@H](CC(=O)O)C(=O)N[C@H](C(=O)N1CCC[C@H]1C(=O)O)C(C)C [886.05] (H-ILDVP-OH)", "VLA-4 (Homo sapiens, UniProt P05556+P13612)", 2),
    ("CC(C)C[C@@H](C(=O)N[C@@H](CC(=O)O)C(=O)N[C@@H](Cc1ccccc1)C(=O)N1CCC[C@@H]1C(N)=O)n1c(=O)[nH]c2ccccc2c1=O", "VLA-4 (Homo sapiens, UniProt P05556+P13612)", 43.7),
    ("O=C(O)C[C@H](NC(=O)N(Cc1ccccc1)Cc1ccccc1)C(=O)N[C@@H](Cc1ccccc1)C(=O)N1CCCCC1", "VLA-4 (Homo sapiens, UniProt P05556+P13612)", 0),
    ("CC[C@H](C)[C@H](N)C(=O)N[C@@H](CC(C)C)C(=O)N[C@@H](CC(=O)O)C(=O)N[C@H](C(=O)N1CCC[C@@H]1C(N)=O)C(C)C", "VLA-4 (Homo sapiens, UniProt P05556+P13612)", 5.38),
    ("COc1ccc(CCCC(=O)N[C@@H](CC(=O)O)C(=O)N[C@@H](Cc2ccccc2)C(=O)N2CCC[C@@H]2C(N)=O)cc1OC", "VLA-4 (Homo sapiens, UniProt P05556+P13612)", 0),
    ("CC(C)C[C@H](NC(=O)Cc1ccc(O)c(O)c1)C(=O)N[C@@H](CC(=O)O)C(=O)N[C@@H](Cc1ccccc1)C(=O)N1CCCCC1", "VLA-4 (Homo sapiens, UniProt P05556+P13612)", 81.4),
    ("CC(C)C[C@H](NC(=O)CCC1CCCCC1)C(=O)N[C@@H](CC(=O)O)C(=O)N[C@H](C(=O)N1CCC[C@@H]1C(N)=O)C(C)C", "VLA-4 (Homo sapiens, UniProt P05556+P13612)", 1.75),
    ("CC(C)C[C@H](NC(=O)[C@@H](N)Cc1ccccc1)C(=O)N[C@@H](CC(=O)O)C(=O)N[C@@H](Cc1ccccc1)C(=O)N1CCC[C@@H]1C(N)=O [896.27] (H-FLDF[dP]-NH2)", "VLA-4 (Homo sapiens, UniProt P05556+P13612)", 16.9),
    ("CC[C@H](C)[C@H](N)C(=O)N[C@@H](CC(C)C)C(=O)N[C@@H](CC(=O)O)C(=O)N(C)[C@H](C(=O)N1CCC[C@H]1C(N)=O)C(C)C [926.18] (H-ILD[NMeV]P-NH2)", "VLA-4 (Homo sapiens, UniProt P05556+P13612)", 0),
    ("CC(C)C[C@@H](C(=O)N1C(=O)N([C@@H](Cc2ccccc2)C(=O)N2CCCCC2)C(=O)[C@@H]1CC(=O)O)N1C(=O)c2ccccc2C1=O", "VLA-4 (Homo sapiens, UniProt P05556+P13612)", 0),
    ("CC(C)=CCCC(C)CC(=O)N[C@@H](CC(=O)O)C(=O)N[C@@H](Cc1ccccc1)C(=O)N1CCC[C@@H]1C(N)=O (some centres unmarked)", "VLA-4 (Homo sapiens, UniProt P05556+P13612)", 0),
    ("Cc1cccc(C)c1C(=O)N[C@@H](CC(C)C)C(=O)N[C@@H](CC(=O)O)C(=O)N[C@H](C(=O)N1CCC[C@@H]1C(N)=O)C(C)C", "VLA-4 (Homo sapiens, UniProt P05556+P13612)", 3.13),
    ("CC[C@H](C)[C@H](N)C(=O)N[C@@H](CC(C)C)C(=O)N[C@@H](CC(=O)O)C(=O)N[C@@H](Cc1ccccc1)C(=O)N1CCC[C@@H]1C(N)=O [896.26] (H-ILDF[dP]-NH2)", "VLA-4 (Homo sapiens, UniProt P05556+P13612)", 5.63),
    ("NC(=O)[C@H]1CCCN1C(=O)[C@H](Cc1ccccc1)NC(=O)[C@H](CC(=O)O)NC(=O)[C@H](CC1CCCCC1)NC(=O)[C@@H](N)Cc1ccccc1 [896.30] (H-F[Cha]DF[dP]-NH2)", "VLA-4 (Homo sapiens, UniProt P05556+P13612)", 2.69),
    ("NC(=O)[C@H]1CCCN1C(=O)[C@H](Cc1ccccc1)NC(=O)[C@H](CC(=O)O)NC(=O)CCCCC1CCCCC1", "VLA-4 (Homo sapiens, UniProt P05556+P13612)", 0),
]

====

- SUBJECT OF TEST: VLA-4 (Homo sapiens, UniProt P05556+P13612)
- TEST METHOD NOTES: In vitro binding inhibition of 51Cr-labeled Jurkat cells to solid phase-bound CS-1 compound (SEQ ID NO:1)
- Format: cell-based
- Set-up: inflammatory cells that contain the VLA-4 receptor [Jurkat cells; host or cells: Jurkat (human T lymphoblastic line)
Square brackets hold non-standard residues; d marks the D form. Peptide text beside a SMILES is read from it. * marks the point of attachment. Cha = N[C@@H](CC1CCCCC1)C(=O)O; X18 = O=C(c1cn[nH]c1)*
Some compounds, each annotated with its measured Relative Potency.

# COMPOUND, Relative Potency
rows = [
    ("CC(C)C[C@H](NC(=O)[C@H]1CCCN1)C(=O)N[C@@H](CC(=O)O)C(=O)N[C@@H](Cc1ccccc1)C(=O)N1CCC[C@@H]1C(N)=O [951.11] (H-[dP]LDF[dP]-NH2)", 2.5),
    ("CC(C)C[C@@H](C(=O)N[C@@H](CC(=O)O)C(=O)N[C@@H](Cc1ccccc1)C(=O)N1CCCCC1)N1C(=O)N[C@H](c2ccccc2)C1=O [1047.01]", 34.4),
    ("CC[C@H](C)[C@H](N)C(=O)N[C@@H](CC(C)C)C(=O)N[C@@H](CC(=O)O)C(=O)N[C@H](C(=O)N1CCC[C@H]1C(N)=O)C(C)C [886.03]", 1.55),
    ("CC(C)C[C@H](NCc1ccccc1)C(=O)N[C@@H](CC(=O)O)C(=O)N[C@@H](Cc1ccccc1)C(=O)N1CCCCC1 [1033.01]", 5.84),
    ("CC(C)C[C@H](NC(=O)C(C)(C)C)C(=O)N[C@@H](CC(=O)O)C(=O)N[C@H](C(=O)N1CCC[C@H]1C(N)=O)C(C)C [926.01]", 3.29),
    ("CC(C)C[C@H](NC(=O)CCc1ccccc1)C(=O)N[C@@H](CC(=O)O)C(=O)N[C@H](C(=O)N1CCC[C@@H]1C(N)=O)C(C)C [896.40]", 5.32),
    ("CC[C@H](C)[C@H](N)C(=O)N[C@@H](CC1CCCCC1)C(=O)N[C@@H](CC(=O)O)C(=O)N[C@H](C(=O)N1CCC[C@@H]1C(N)=O)C(C)C [896.32] (H-I[Cha]DV[dP]-NH2)", 1.41),
    ("CC(C)C[C@H](NC(=O)c1cn[nH]c1)C(=O)N[C@@H](CC(=O)O)C(=O)N[C@@H](Cc1ccccc1)C(=O)N1CCC[C@@H]1C(N)=O [951.03] (X18-LDF[dP]-NH2)", 28.2),
    ("CC(C)C[C@H](NC(=O)c1cccnc1)C(=O)N[C@@H](CC(=O)O)C(=O)N[C@H](C(=O)N1CCC[C@@H]1C(N)=O)C(C)C [896.42]", 38.1),
]

====

- SUBJECT OF TEST: VLA-4 (Homo sapiens, UniProt P05556+P13612)
- TEST METHOD NOTES: In vitro binding inhibition of 51Cr-labeled Jurkat cells to solid phase-bound CS-1 compound (SEQ ID NO:1)
- Type: cell-based
- Parameters: inflammatory cells that contain the VLA-4 receptor [Jurkat cells; host or cells: Jurkat (human T lymphoblastic line)
Square brackets hold non-standard residues; d marks the D form. Peptide text beside a SMILES is read from it. Cha = N[C@@H](CC1CCCCC1)C(=O)O
Relative Potency below 3 gives not met; Relative Potency at or above it gives met.

# COMPOUND, CLASSIFICATION
records = [
    ("CC(C)C[C@@H](C(=O)N[C@@H](CC(=O)O)C(=O)N[C@@H](Cc1ccccc1)C(=O)N1CCCCC1)N1C(=O)N[C@@H](Cc2ccccc2)C1=O", "met"),
    ("CC(C)[C@H](NC(=O)[C@H](CC(=O)O)NC(=O)[C@H](CC1CCCCC1)NC(=O)[C@@H](N)Cc1ccccc1)C(=O)N1CCC[C@@H]1C(N)=O [896.33] (H-F[Cha]DV[dP]-NH2)", "not met"),
    ("CC(C)C[C@H](NC(=O)C1CCCCC1)C(=O)N[C@@H](CC(=O)O)C(=O)N[C@H](C(=O)N1CCC[C@@H]1C(N)=O)C(C)C", "met"),
    ("NC(=O)[C@H]1CCCN1C(=O)[C@H](Cc1ccccc1)NC(=O)[C@H](CC(=O)O)NC(=O)CCCCCC1CCCCC1", "not met"),
    ("CC(C)C[C@H](NC(=O)[C@@H](N)Cc1ccccc1)C(=O)N[C@@H](CC(=O)O)C(=O)N[C@H](C(=O)N1CCC[C@@H]1C(N)=O)C(C)C [926.04] (H-FLDV[dP]-NH2)", "not met"),
]

Reference source for all entries: patent US5770573A
